biological target: SARS-CoV-2 S on pseudovirions (Wuhan Hu-1 / IL1/2020, last 18 amino acids removed) (SARS-CoV-2, UniProt P0DTC2 14-1273); assay: cell-based or functional assay
Kindly supply the reported Mean IC50, pSV neutralization values for the records listed here.

Request: Supply recorded Mean IC50, pSV neutralization for COV_2103 (antibody, V domains shown, human IgG1) VH: EVQLVESGGGVVQPGRSLRLSCGASGFTFSSYGIHWVRQAPGKGLDWVAVIWHDGSQKYYGDSVKGRFTISRDNSKNTLYLQMNRLRAEDTAVYYCARDSGDDYDSSGYPIGNAFDLWGQGTMVTVSS VL: DIQMTQSPSTLSASVGDRVTITCRASQFINSWLAWYQQKPGKAPKLLIYKASSLETGVPSRFSGSGSGTEFTLTISSLQPDDFATYYCQQYNTYSFTFGPGTKVDIK here.
Result: ≥ 25 µg/ml

Request: Please look at this binder and report its Mean IC50, pSV neutralization: COV_2039 (antibody, V domains shown, human IgG1) VH: QVQLVQSGAEVKKPGASVKVSCKVSGYMLIELSMHWVRQAPGKGLEWMGGFDPEDAETIYAQEFQGRVTMTEDTSTDTAYMELSSLRSEDTAVYYCTTGPAVTNRPADYWGPGTLVTVSS VL: QSVLTQPPSVSGAPGQRVTISCTGSSSNIGASYDVHWYQQLPGTAPKLLIYANSNRPSGVPDRFSGSKSGTSASLAITGLQAEDEADYYCQSYDSSLSYSVVFGGGTKLTVL
Result: 0.01 µg/ml

Request: Answer with reported Mean IC50, pSV neutralization of COV_1071 (antibody, V domains shown) VH: QVHLVQSGAEVQKPGASVKISCKASGDTFSESYVHWVRQAPGSGLEWMGIINTRDGDTNYTHQFQDRVMMTTDTSTSTVFLELYSLTSEDTAVYYCARAPDQYFDYWGQGSPVTVSA VL: DIVMTQTPLSSPVTLGQPASISCRSSESLVHSNGNTYLSWLQQRPGQPPKLLIYRVSNRFSGVPDRFSGSGAGTEFTLKISRVEAEDVGVYYCMQARHFPRTFGQGTKVEIKR
Result: ≥ 25 µg/ml

Request: Give reported Mean IC50, pSV neutralization value for COV_3000 (antibody, V domains shown) VH: EVQLVESGGGLVQPGRSLRLSCTASGFNFGDNSMSWVRQAPGKGLEWVGFISNRASGGTTEYAASVKGRFTISRDDSKSIAYLQMNSLKTEDTAMYFCTKDSYGHFPNYGFDIWGQGTMVTVSS VL: AVVMTQTPLSLSVTPGQPASISCKSSQSLIHTDGKTYHYWFLQRPGQPPQLLIYDVSNRVSGVPDRFSGSGSGTDFTLKISRVEADDVGVYYCMHSIQLPRAFGQGTKVEIT
Result: ≥ 25 µg/ml

Request: Give a short answer stating reported Mean IC50, pSV neutralization for COV_3019 (antibody, V domains shown) VH: EVQLVESGGGLVQPGQSLRLSCTTSGFNFGDNSMSWVRQAPGKGLEWVGFISPKSHGETTEYAASVKGRFSISRDDSTSIAYLQMSSLKTEDTAIYYCIRDSYGHFPEYGFDIWGQGTMVTVSS VL: DVVLTQTPLFLSVTPGQPASISCKSSRSLIHSDGKTYFYWFLQKAGQPPQLLIYEASNRFSGVPDRFSGSGSGTDFTLHISRVEAEDVGIYYCMHSIQLPRTFGQGTKVELT .
Result: ≥ 25 µg/ml
